These entries and their values trace back to patent US20090269346A1.

# STUDY SYSTEM: T1, LRP2 CR89 (human, UniProt P98164 1025-1102)
# T1 construct: domain: CR8 and CR9; also called YVWR; L2 CR89; not shown: N-terminal hexahistidine and S-peptide from pET30(+)a
# T1 sequence (P98164 1025-1102): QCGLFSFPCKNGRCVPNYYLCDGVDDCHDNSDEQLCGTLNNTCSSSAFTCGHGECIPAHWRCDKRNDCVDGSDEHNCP
# PROCEDURE TEXT: solid-phase assay, coated CR protein, anti-RAP, OD450
Kindly supply the reported % max (percent of maximum binding) values for the records listed here.
The reply should be a number in %, with the unit left off.

% max (percent of maximum binding) reading for RAP d3 K256A, K270E (ligand, forward mutant of wild-type RAP d3; also called RAP K256A, K270E; not shown: vector-encoded N-terminal tags of pET30(+)a) LDRLRRVSHQGYSTEAEFEEPRVIDLWDLEQSANLTDKELEAFREELKHFEAKIEAHNHYQKQLEIAHEELRHAESVGDGERVSRSREKHALLEGRTKELGYTVKKHLQDLSGRISRAR : 3

% max (percent of maximum binding) reading for RAP d3 E251K (ligand, forward mutant of wild-type RAP d3; also called RAP E251K; not shown: vector-encoded N-terminal tags of pET30(+)a) LDRLRRVSHQGYSTEAEFEEPRVIDLWDLEQSANLTDKELEAFREELKHFKAKIEKHNHYQKQLEIAHEKLRHAESVGDGERVSRSREKHALLEGRTKELGYTVKKHLQDLSGRISRAR : 5

% max (percent of maximum binding) reading for RAP d3 H249Y (ligand, forward mutant of wild-type RAP d3; also called RAP H249Y; not shown: vector-encoded N-terminal tags of pET30(+)a) LDRLRRVSHQGYSTEAEFEEPRVIDLWDLEQSANLTDKELEAFREELKYFEAKIEKHNHYQKQLEIAHEKLRHAESVGDGERVSRSREKHALLEGRTKELGYTVKKHLQDLSGRISRAR : 2

% max (percent of maximum binding) reading for RAP d3 K270E (ligand, forward mutant of wild-type RAP d3; also called RAP K270E; not shown: vector-encoded N-terminal tags of pET30(+)a) LDRLRRVSHQGYSTEAEFEEPRVIDLWDLEQSANLTDKELEAFREELKHFEAKIEKHNHYQKQLEIAHEELRHAESVGDGERVSRSREKHALLEGRTKELGYTVKKHLQDLSGRISRAR : 2
